Molecular target: UniProt P32239
Sequence (P32239 1-447): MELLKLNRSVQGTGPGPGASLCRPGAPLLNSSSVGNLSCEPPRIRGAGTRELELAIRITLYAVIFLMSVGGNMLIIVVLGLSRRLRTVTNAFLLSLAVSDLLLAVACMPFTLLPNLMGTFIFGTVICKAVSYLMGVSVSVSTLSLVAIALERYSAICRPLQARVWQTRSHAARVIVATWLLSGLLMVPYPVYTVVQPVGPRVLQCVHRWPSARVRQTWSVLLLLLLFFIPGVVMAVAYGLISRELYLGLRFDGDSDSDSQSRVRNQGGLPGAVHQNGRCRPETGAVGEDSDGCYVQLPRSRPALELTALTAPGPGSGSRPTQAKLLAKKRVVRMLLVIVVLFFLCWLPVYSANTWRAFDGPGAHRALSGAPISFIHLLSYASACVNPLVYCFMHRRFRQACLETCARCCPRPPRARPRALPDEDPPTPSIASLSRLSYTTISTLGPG
Property Label: IC50 (nM)
Express it in nM; write the number only.

// recorded IC50 for `COc1cc(-c2nc(NC(=O)c3cc4cc(C)cc(C)c4n3CC(=O)O)sc2CCC2CCCCC2)c(OC)cc1Cl.O=C(O)C(F)(F)F` : 162

====

biological target: human CCK-A receptor (Homo sapiens); assay: displacement of [125I]-CCK from 3T3 cells expressing the human CCK-A recombinant receptor; conditions: read-out: affinity for the human CCK-A receptor (IC50)
Property Label: IC50
Answer shape: numeric part, then the unit.

The measured IC50 that `COc1cc(-c2nc(NC(=O)c3cc4cc(C)cc(C)c4n3CC(=O)O)sc2CCC2CCCCC2)c(OC)cc1Cl.O=C(O)C(F)(F)F` showed for human CCK-A receptor (Homo sapiens) is 0.56 nM

====

Molecular target: human CCK-A receptor (Homo sapiens, UniProt P32238)
Sequence (P32238 1-428): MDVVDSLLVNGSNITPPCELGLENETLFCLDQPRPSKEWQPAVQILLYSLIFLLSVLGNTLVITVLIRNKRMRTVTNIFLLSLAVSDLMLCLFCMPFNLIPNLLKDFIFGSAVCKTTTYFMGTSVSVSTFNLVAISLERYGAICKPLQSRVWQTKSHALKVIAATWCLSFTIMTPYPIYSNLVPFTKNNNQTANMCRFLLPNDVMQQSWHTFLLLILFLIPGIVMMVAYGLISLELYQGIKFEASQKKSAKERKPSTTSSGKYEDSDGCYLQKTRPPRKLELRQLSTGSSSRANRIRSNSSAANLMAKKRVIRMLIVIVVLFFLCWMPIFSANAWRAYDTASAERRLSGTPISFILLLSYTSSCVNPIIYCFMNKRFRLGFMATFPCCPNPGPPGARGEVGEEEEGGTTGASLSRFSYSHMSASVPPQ
Assay: mobilization of intracellular calcium ([Ca++]i, Fura-2) in 3T3 cells expressing the human CCK-A receptor
Conditions: read-out: EC50 (effective concentration which induces 50% of the effect of CCK) for increase in intracellular calcium concentration; 3T3 cells expressing human CCK-A receptor
Description: The calcium concentration [Ca^++]i is evaluated with Fura-2 as fluorescent probe, by the double excitation wavelength method. The ratio of the fluorescence emitted at two wavelengths gives the concentration of [Ca^++]i after calibration (Grynkiewicz G. et al., J. Biol. Chem., 1985, 260, 3440-3450).
Property Label: EC50 (nM)
Field format: number, assumed nM, no unit text.

# EC50 (molecule: COc1cc(-c2nc(NC(=O)c3cc4cc(C)cc(C)c4n3CC(=O)O)sc2CCC2CCCCC2)c(OC)cc1Cl.O=C(O)C(F)(F)F [Example 5] ) is 1.27

Recorded values, source patent US6380230B1.
